- targetOrTestSystem: UniProt Q92800
- assayProtocol: AlphaLISA enzyme activity inhibition, EZH1
- Type: biochemical
- conditionInfo: 5nM test substance
property: inhibition at 0.005 µM (%)
Field format: number, assumed %, no unit text.

Q. Could you share which inhibition at 0.005 µM value was measured for CSc1cc(C)[nH]c(=O)c1CNC(=O)c1cc(-c2ccc(N3C[C@@H](C)O[C@@H](C)C3)nc2)c2c(c1C)OC(C)(C1CCN(CC(F)(F)F)CC1)O2 (single isomer, unassigned) [Compound 44] ?
A. 46.8

Q. Could you share which inhibition at 0.005 µM value was measured for CSc1cc(C)[nH]c(=O)c1CNC(=O)c1cc(-c2ccc(N3C[C@@H](C)O[C@@H](C)C3)nc2)c2c(c1C)OC(C)([C@H]1CC[C@H](N(C)CC(F)(F)F)CC1)O2 (single isomer, unassigned) [Compound 107] ?
A. 39.3

---

Record form. Attribute: inhibition at 1 µM. Fill in for each entry.
- Tested on: SW-13 cells
- assayProtocol: Cancer cell proliferation inhibition (Cell Counting Kit-8), adrenal cancer cell line
- Type: cell-based
- conditionInfo: Homo sapiens, SW13, 264 h, 1000 nM, cultured seven to 11 days; read-out: % inhibition rate SW-13

Q. Given the entry CSc1cc(C)[nH]c(=O)c1CNC(=O)c1cc(-c2cnc(N3CCCCC3)nc2)c2c(c1C)OC(C)([C@H]1CC[C@H](N(C)CC(F)(F)F)CC1)O2 (relative stereo) , what inhibition at 1 µM was observed with SW-13 cells?
A. ≤ 30%

Q. Given the entry CSc1cc(C)[nH]c(=O)c1CNC(=O)c1cc(-c2cnc(N3C[C@@H](C)O[C@@H](C)C3)nc2)c2c(c1C)OC(C)(C1CCN(CC(F)(F)F)CC1)O2 (stereo partly drawn) , what inhibition at 1 µM was observed with SW-13 cells?
A. ≤ 30%

Q. Given the entry CSc1cc(C)[nH]c(=O)c1CNC(=O)c1cc(-c2ccc(N3C[C@@H](C)O[C@@H](C)C3)nc2)c2c(c1C)OC(C)(C1CCN(CC(F)F)CC1)O2 (stereo partly drawn) [Compound 46] , what inhibition at 1 µM was observed with SW-13 cells?
A. 30 to 70%

---

- targetOrTestSystem: EZH1 (Homo sapiens, UniProt Q92800)
- Sequence (Q92800 whole entry, species assumed): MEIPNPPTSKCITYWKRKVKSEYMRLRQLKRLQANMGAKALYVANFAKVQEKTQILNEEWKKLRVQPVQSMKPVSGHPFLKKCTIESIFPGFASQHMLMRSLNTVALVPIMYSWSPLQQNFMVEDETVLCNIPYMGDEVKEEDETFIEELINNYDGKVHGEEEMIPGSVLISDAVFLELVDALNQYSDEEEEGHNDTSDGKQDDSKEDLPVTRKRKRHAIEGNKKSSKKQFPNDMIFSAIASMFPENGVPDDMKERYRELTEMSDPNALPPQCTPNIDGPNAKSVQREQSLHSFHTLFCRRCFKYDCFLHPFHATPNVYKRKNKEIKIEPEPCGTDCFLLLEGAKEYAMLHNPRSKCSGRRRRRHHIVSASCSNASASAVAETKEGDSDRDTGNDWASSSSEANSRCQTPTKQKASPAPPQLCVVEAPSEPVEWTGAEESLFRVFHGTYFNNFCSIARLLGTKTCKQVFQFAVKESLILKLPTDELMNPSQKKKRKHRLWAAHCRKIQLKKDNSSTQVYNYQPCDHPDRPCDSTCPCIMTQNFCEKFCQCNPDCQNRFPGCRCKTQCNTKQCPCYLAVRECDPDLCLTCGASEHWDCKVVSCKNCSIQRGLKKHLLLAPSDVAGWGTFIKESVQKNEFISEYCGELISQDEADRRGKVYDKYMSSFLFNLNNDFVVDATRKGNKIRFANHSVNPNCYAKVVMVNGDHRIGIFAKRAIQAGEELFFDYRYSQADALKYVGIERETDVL
- Sequence (O75530 whole entry partner, species assumed): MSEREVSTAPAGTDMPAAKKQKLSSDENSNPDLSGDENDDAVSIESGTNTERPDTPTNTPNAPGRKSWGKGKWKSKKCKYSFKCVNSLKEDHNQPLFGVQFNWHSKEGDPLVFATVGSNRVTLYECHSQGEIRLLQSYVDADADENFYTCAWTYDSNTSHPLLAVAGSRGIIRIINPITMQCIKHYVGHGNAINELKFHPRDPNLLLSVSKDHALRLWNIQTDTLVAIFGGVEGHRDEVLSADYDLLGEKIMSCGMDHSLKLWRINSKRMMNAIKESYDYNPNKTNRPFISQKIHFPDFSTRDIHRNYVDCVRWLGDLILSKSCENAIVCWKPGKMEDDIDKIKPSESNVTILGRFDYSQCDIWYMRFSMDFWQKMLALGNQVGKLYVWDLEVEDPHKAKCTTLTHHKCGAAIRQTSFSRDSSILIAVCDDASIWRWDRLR
- Sequence (Q15022 whole entry partner, species assumed): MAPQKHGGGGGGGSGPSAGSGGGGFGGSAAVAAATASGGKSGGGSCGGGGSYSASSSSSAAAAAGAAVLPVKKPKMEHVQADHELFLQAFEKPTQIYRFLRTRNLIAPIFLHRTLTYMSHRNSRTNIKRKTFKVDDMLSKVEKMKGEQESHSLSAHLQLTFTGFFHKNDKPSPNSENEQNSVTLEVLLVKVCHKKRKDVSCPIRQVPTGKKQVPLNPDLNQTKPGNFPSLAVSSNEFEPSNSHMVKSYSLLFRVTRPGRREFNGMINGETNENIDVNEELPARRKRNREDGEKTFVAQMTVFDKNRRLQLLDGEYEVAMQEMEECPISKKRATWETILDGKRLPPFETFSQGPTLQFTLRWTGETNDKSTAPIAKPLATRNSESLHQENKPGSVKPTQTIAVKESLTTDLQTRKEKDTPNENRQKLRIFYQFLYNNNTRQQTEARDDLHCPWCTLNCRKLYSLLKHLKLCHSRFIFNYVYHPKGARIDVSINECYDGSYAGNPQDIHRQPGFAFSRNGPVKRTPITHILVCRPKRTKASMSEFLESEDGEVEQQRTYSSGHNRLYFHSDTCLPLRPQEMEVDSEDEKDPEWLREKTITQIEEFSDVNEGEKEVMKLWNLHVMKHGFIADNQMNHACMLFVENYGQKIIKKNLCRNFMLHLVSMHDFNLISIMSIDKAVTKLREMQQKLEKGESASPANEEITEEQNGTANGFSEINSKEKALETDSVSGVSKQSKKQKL
- assayProtocol: AlphaLISA enzyme activity inhibition, EZH1
- Type: biochemical
- conditionInfo: 10nM test substance
Where a name gives a salt, the structure may show the parent alone.
Record form. Attribute: inhibition at 0.01 µM. Fill in for each entry.
Field format: number, assumed %, no unit text.

Q. Could you share which inhibition at 0.01 µM value was measured for CSc1cc(C)[nH]c(=O)c1CNC(=O)c1cc(-c2cnc(N3CCOCC3)nc2)c2c(c1C)OC(C)(C1CCN(CC(F)(F)F)CC1)O2 (centres unmarked) [Compound 68] ?
A. 78.9

Q. Could you share which inhibition at 0.01 µM value was measured for CCCCN(C)c1ccc(-c2cc(C(=O)NCc3c(SC)cc(C)[nH]c3=O)c(C)c3c2OC(C)(C2CCN(CC(F)(F)F)CC2)O3)cn1 (centres unmarked) ?
A. 17.6

Q. Could you share which inhibition at 0.01 µM value was measured for CSc1cc(C)[nH]c(=O)c1CNC(=O)c1cc(-c2ccc(N3C[C@@H](C)O[C@@H](C)C3)nc2)c2c(c1C)OC(C)([C@H]1CC[C@H](N(C)CC(F)F)CC1)O2 (some centres unmarked) ?
A. 35.2

Q. Could you share which inhibition at 0.01 µM value was measured for CSc1cc(C)[nH]c(=O)c1CNC(=O)c1cc(-c2ccc3occc3c2)c2c(c1C)OC(C)(C1CCN(CC(F)F)CC1)O2 (centres unmarked) ?
A. 20.5

Q. Could you share which inhibition at 0.01 µM value was measured for CSc1cc(C)[nH]c(=O)c1CNC(=O)c1cc(-c2ccc(N3C[C@@H](C)O[C@@H](C)C3)nc2)c2c(c1C)OC(C)([C@H]1CC[C@H](N)CC1)O2 (some centres unmarked) [Compound 100, hydrochloride] ?
A. 68.1

Q. Could you share which inhibition at 0.01 µM value was measured for CSc1cc(C)[nH]c(=O)c1CNC(=O)c1cc(-c2ccc3c(c2)OCO3)c2c(c1C)OC(C)(C1CCN(CC(F)F)CC1)O2 (centres unmarked) ?
A. 46

Q. Could you share which inhibition at 0.01 µM value was measured for CCN1CCC(C2(C)Oc3c(-c4cnc(N(C)CC)nc4)cc(C(=O)NCc4c(SC)cc(C)[nH]c4=O)c(C)c3O2)CC1 (single isomer, unassigned) ?
A. 78.8

Q. Could you share which inhibition at 0.01 µM value was measured for CSc1cc(C)[nH]c(=O)c1CNC(=O)c1cc(-c2cnc(N3CCOCC3)nc2)c2c(c1C)OC(C)(C1CCN(CC(F)F)CC1)O2 (single isomer, unassigned) ?
A. 82.8

Q. Could you share which inhibition at 0.01 µM value was measured for CSc1cc(C)[nH]c(=O)c1CNC(=O)c1cc(-c2ccc(N3C[C@@H](C)O[C@@H](C)C3)nc2)c2c(c1C)OC(C)([C@H]1CC[C@H](N(C)C(=O)C(F)(F)F)CC1)O2 (some centres unmarked) ?
A. 9.6

Q. Could you share which inhibition at 0.01 µM value was measured for CSc1cc(C)[nH]c(=O)c1CNC(=O)c1cc(-c2ccc(N3C[C@@H](C)O[C@@H](C)C3)nc2)c2c(c1C)OC(C)(C1CCN(CCCC(F)(F)F)CC1)O2 (single isomer, unassigned) ?
A. 76.2

Q. Could you share which inhibition at 0.01 µM value was measured for CSc1cc(C)[nH]c(=O)c1CNC(=O)c1cc(-c2ccc(N3C[C@@H](C)O[C@@H](C)C3)nc2)c2c(c1C)OC(C)(C1CCN(C(=O)C(F)(F)F)CC1)O2 (single isomer, unassigned) ?
A. 5.7

---

- targetOrTestSystem: EZH1 (Homo sapiens)
- assayProtocol: AlphaLISA enzyme activity inhibition, EZH1
- Assay type: biochemical
- conditionInfo: 5nM test substance
Binary classification by inhibition at 0.005 µM, with 70% as an inclusive lower bound for yes (1); all other cases are no (0).

Q. Threshold query (inhibition at 0.005 µM >= 70%) on CSc1cc(C)[nH]c(=O)c1CNC(=O)c1cc(-c2ccc(N3CCSCC3)nc2)c2c(c1C)OC(C)([C@H]1CC[C@H](N(C)C)CC1)O2 (relative stereo) [Compound 17]
A. yes (1)

Q. Threshold query (inhibition at 0.005 µM >= 70%) on CSc1cc(C)[nH]c(=O)c1CNC(=O)c1cc(-c2ccc(N3C[C@@H](C)O[C@@H](C)C3)nc2)c2c(c1C)OC(C)([C@H]1CC[C@H](N(C)C(C)C)CC1)O2 (stereo partly drawn) [Compound 110]
A. no (0)

Q. Threshold query (inhibition at 0.005 µM >= 70%) on CSc1cc(C)[nH]c(=O)c1CNC(=O)c1cc(-c2ccc(N3C[C@@H](C)O[C@@H](C)C3)nc2)c2c(c1C)OC(C)(C1CCN(CC(F)F)CC1)O2 (stereo partly drawn) [Compound 46]
A. no (0)

Q. Threshold query (inhibition at 0.005 µM >= 70%) on CSc1cc(C)[nH]c(=O)c1CNC(=O)c1cc(-c2cnc(N3CCOCC3)nc2)c2c(c1C)OC(C)(C1CCN(CC(F)(F)F)CC1)O2 (stereo not drawn) [Compound 68]
A. no (0)

Q. Threshold query (inhibition at 0.005 µM >= 70%) on CSc1cc(C)[nH]c(=O)c1CNC(=O)c1cc(-c2ccc(N3C[C@@H](C)O[C@@H](C)C3)nc2)c2c(c1C)OC(C)([C@H]1CC[C@H](N3CC(OCC(F)F)C3)CC1)O2 (stereo partly drawn) [Compound 103]
A. no (0)

Q. Threshold query (inhibition at 0.005 µM >= 70%) on CSc1cc(C)[nH]c(=O)c1CNC(=O)c1cc(-c2ccc(N3C[C@@H](C)O[C@@H](C)C3)nc2)c2c(c1C)OC(C)(C1CCN(C[C@H](C)O)CC1)O2 (stereo partly drawn) [Compound 40]
A. yes (1)

Q. Threshold query (inhibition at 0.005 µM >= 70%) on CSc1cc(C)[nH]c(=O)c1CNC(=O)c1cc(-c2ccc(N3C[C@@H](C)O[C@@H](C)C3)nc2)c2c(c1C)OC(C)(C1CCN(C3CCCCC3)CC1)O2 (single isomer, unassigned) [Compound 53]
A. yes (1)

Q. Threshold query (inhibition at 0.005 µM >= 70%) on CSc1cc(C)[nH]c(=O)c1CNC(=O)c1cc(-c2ccc(N3C[C@@H](C)O[C@@H](C)C3)nc2)c2c(c1C)OC(C)([C@H]1CC[C@H](N(C)CC(F)F)CC1)O2 (stereo partly drawn) [Compound 109]
A. no (0)

Q. Threshold query (inhibition at 0.005 µM >= 70%) on CSc1cc(C)[nH]c(=O)c1CNC(=O)c1cc(-c2ccc(N3C[C@@H](C)O[C@@H](C)C3)nc2)c2c(c1C)OC(C)([C@H]1CC[C@H](N(C)CCc3ccccc3)CC1)O2 (stereo partly drawn) [Compound 112]
A. no (0)

Q. Threshold query (inhibition at 0.005 µM >= 70%) on CSc1cc(C)[nH]c(=O)c1CNC(=O)c1cc(-c2ccc3c(c2)OCO3)c2c(c1C)OC(C)(C1CCN(CC(F)F)CC1)O2 (stereo not drawn) [Compound 95]
A. no (0)

Q. Threshold query (inhibition at 0.005 µM >= 70%) on CSc1cc(C)[nH]c(=O)c1CNC(=O)c1cc(-c2cnc(N3CCC4(CC3)COC4)nc2)c2c(c1C)OC(C)([C@H]1CC[C@H](N(C)C)CC1)O2 (relative stereo) [Compound 15]
A. yes (1)

Q. Threshold query (inhibition at 0.005 µM >= 70%) on CCN(C)c1ncc(-c2cc(C(=O)NCc3c(SC)cc(C)[nH]c3=O)c(C)c3c2OC(C)(C2CCN(CC(F)F)CC2)O3)cn1 (single isomer, unassigned) [Compound 81]
A. yes (1)

Q. Threshold query (inhibition at 0.005 µM >= 70%) on COCCN(C)[C@H]1CC[C@H](C2(C)Oc3c(-c4ccc(OC)nc4)cc(C(=O)NCc4c(SC)cc(C)[nH]c4=O)c(C)c3O2)CC1 (relative stereo) [Compound 28]
A. yes (1)

Q. Threshold query (inhibition at 0.005 µM >= 70%) on CSc1cc(C)[nH]c(=O)c1CNC(=O)c1cc(-c2cnc(N3C[C@@H](C)O[C@@H](C)C3)nc2)c2c(c1C)OC(C)([C@H]1CC[C@H](N(C)C)CC1)O2 (stereo partly drawn) [Compound 2]
A. yes (1)

Q. Threshold query (inhibition at 0.005 µM >= 70%) on CSc1cc(C)[nH]c(=O)c1CNC(=O)c1cc(-c2ccc(N3CCCCC3)cc2)c2c(c1C)OC(C)(C1CCN(CC(F)(F)F)CC1)O2 (stereo not drawn) [Compound 90]
A. no (0)

Q. Threshold query (inhibition at 0.005 µM >= 70%) on CSc1cc(C)[nH]c(=O)c1CNC(=O)c1cc(-c2ccc(N3C[C@@H](C)O[C@@H](C)C3)nc2)c2c(c1C)OC(C)([C@H]1CC[C@H](N(C)CCCC(F)(F)F)CC1)O2 (stereo partly drawn) [Compound 113]
A. no (0)

Q. Threshold query (inhibition at 0.005 µM >= 70%) on CSc1cc(C)[nH]c(=O)c1CNC(=O)c1cc(-c2ccc(N3C[C@@H](C)O[C@@H](C)C3)nc2)c2c(c1C)OC(C)([C@H]1CC[C@H](N(C)CC3OCCO3)CC1)O2 (stereo partly drawn) [Compound 32]
A. yes (1)

Q. Threshold query (inhibition at 0.005 µM >= 70%) on CSc1cc(C)[nH]c(=O)c1CNC(=O)c1cc(-c2ccc(N3C[C@@H](C)O[C@@H](C)C3)nc2)c2c(c1C)OC(C)(C1CCN(CCCC(F)(F)F)CC1)O2 (single isomer, unassigned) [Compound 57]
A. no (0)

Q. Threshold query (inhibition at 0.005 µM >= 70%) on CSc1cc(C)[nH]c(=O)c1CNC(=O)c1cc(-c2ccc(N3CCCCC3)nc2)c2c(c1C)OC(C)(C1CCN(CC(F)(F)F)CC1)O2 (stereo not drawn) [Compound 91]
A. no (0)

Q. Threshold query (inhibition at 0.005 µM >= 70%) on CSc1cc(C)[nH]c(=O)c1CNC(=O)c1cc(-c2ccc(N3CCOCC3)nc2)c2c(c1C)OC(C)(C1CCN(CC(F)F)CC1)O2 (single isomer, unassigned) [Compound 64]
A. yes (1)
